molecular target: human OATP1B1 (Homo sapiens (Human), UniProt Q9Y6L6); assay: In Vitro Inhibition Assessment with Human OATP1B1 Transporter; format: in vitro ADME; conditions: HEK293-OATP1B1 cells, probe substrate pravastatin
Sequence (Q9Y6L6 whole entry): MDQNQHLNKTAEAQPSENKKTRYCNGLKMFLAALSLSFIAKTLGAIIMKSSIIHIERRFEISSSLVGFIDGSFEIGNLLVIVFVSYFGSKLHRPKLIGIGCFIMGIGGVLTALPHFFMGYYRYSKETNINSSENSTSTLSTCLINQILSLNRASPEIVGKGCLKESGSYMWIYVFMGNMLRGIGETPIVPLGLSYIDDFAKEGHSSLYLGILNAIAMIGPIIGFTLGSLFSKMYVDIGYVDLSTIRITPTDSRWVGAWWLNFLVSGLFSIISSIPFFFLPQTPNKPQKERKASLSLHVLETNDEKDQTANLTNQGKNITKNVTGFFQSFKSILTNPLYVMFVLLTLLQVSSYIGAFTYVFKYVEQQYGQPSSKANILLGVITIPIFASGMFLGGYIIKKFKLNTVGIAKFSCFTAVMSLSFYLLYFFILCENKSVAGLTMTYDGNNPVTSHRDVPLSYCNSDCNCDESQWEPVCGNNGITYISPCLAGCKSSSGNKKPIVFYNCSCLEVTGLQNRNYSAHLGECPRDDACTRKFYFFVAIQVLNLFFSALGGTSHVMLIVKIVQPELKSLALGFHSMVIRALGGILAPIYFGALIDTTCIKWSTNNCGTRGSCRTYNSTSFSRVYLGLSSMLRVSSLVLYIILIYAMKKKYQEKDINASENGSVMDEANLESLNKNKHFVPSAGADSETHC
Exercise: for every item that follows, state its recorded pIC50.
Numbers only, as −log10 of the molar value.

Example entries and their recorded answers appear below.
molecule | measured_on | measurement_type | reported_result
C[C@H]1CCN1c1nc2c(c(-c3ccc4nc(N)[nH]c(=O)c4c3)n1)CCC2 | human OATP1B1 (Homo sapiens (Human), UniProt Q9Y6L6) | pIC50 | 5.87
C[C@H]1CCN1c1nc(N2C[C@H]3C[C@@H](C2)[C@@H]3CC(=O)O)cc(C(F)(F)F)n1 [Reference Compound 3, reference compound] | human OATP1B1 (Homo sapiens (Human), UniProt Q9Y6L6) | pIC50 | 5.84
C[C@H]1CCN1c1nc(N2C[C@@H]3[C@@H](CC(=O)O)[C@@H]3C2)c2c(n1)C(F)(F)CCC2 [Reference Compound 6, reference compound] | human OATP1B1 (Homo sapiens (Human), UniProt Q9Y6L6) | pIC50 | 6.02
C[C@H]1CCN1c1nc2c(c(-c3ccc4c(=O)[nH]cc(S(N)(=O)=O)c4c3)n1)CCC2 | human OATP1B1 (Homo sapiens (Human), UniProt Q9Y6L6) | pIC50 | 6.01

Ask: Reported pIC50 for human OATP1B1 (Homo sapiens (Human), UniProt Q9Y6L6), given C[C@H]1CCN1c1nc(N2C[C@@H]3[C@@H](CC(=O)O)[C@@H]3C2)c2c(n1)C(F)(F)CC2 [Reference Compound 5, reference compound] ?
Reply: 6.14
